Target: androgen receptor (AR) (Homo sapiens, UniProt P10275, T878A)
Construct: LNCaP cells expressing ARR2PB-FireflyLuc and CMV-RenillaLuc; endogenous in cells; host or cells: LNCaP cells carrying ARR2PB-FireflyLuc and CMV-RenillaLuc reporters
Sequence (P10275 1-920 T878A): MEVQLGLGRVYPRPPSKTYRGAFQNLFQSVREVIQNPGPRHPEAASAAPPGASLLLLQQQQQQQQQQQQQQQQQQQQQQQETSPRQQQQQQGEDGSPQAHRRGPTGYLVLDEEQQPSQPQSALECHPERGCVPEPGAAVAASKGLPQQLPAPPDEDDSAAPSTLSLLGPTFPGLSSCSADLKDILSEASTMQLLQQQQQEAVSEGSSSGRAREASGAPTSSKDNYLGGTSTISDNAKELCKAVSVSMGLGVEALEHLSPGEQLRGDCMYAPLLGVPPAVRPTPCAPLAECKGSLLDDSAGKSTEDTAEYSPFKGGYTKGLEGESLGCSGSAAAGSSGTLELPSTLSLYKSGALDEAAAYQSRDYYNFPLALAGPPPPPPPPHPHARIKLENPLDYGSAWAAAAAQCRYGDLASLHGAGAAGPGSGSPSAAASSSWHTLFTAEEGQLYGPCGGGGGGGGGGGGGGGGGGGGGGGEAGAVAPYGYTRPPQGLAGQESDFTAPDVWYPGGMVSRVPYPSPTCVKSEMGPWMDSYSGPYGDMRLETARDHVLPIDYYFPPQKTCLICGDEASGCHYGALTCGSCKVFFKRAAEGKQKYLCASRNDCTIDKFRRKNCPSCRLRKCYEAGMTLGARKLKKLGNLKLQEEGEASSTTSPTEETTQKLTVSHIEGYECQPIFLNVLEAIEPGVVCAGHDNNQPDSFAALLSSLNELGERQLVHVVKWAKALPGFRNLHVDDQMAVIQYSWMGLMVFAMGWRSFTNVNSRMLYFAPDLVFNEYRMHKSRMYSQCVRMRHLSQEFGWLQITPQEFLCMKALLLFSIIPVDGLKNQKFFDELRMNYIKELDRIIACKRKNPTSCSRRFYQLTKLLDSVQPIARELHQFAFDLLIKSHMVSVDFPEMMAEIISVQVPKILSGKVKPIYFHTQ
Experiment: AR reporter assay in LNCaP cells expressing ARR2PB-FireflyLuc and CMV-RenillaLuc, antagonist mode (% remaining activity, IC50)
Format: cell-based
Conditions: 48 h at 37° C., class symbols A-D, read-out: IC50
# IC50 annotations
QUANTITY NAME: IC50

> print(dat)
                                    compound                                    target            result
 1  N#Cc1cccc2c(-c3cccc(N4CCC4)n3)c[nH]c12 [Compound 178]  androgen receptor (AR) (Homo sapiens, UniProt P10275, T878A)    100 to 1000 nM
 2  Cc1cc(-c2c[nH]c3c(C#N)cccc23)ncc1N [Compound 138]  androgen receptor (AR) (Homo sapiens, UniProt P10275, T878A)  1000 to 10000 nM
 3  CC1NC(=O)c2ccc(-c3c[nH]c4c(C#N)cccc34)nc21 (stereo not shown) [Compound 205]  androgen receptor (AR) (Homo sapiens, UniProt P10275, T878A)    100 to 1000 nM
 4  CCc1nc(-c2c[nH]c3c(Cl)cccc23)cnc1OC1CCNC1 (stereo not shown) [Compound 253]  androgen receptor (AR) (Homo sapiens, UniProt P10275, T878A)        > 10000 nM
 5  Cc1nc(-c2c[nH]c3c(C#N)cccc23)cnc1OC1CCNC1 (stereo not shown) [Compound 183]  androgen receptor (AR) (Homo sapiens, UniProt P10275, T878A)    100 to 1000 nM
 6  Cc1nc(-c2c[nH]c3c(C#N)cccc23)cnc1OCC1(C)COC1 [Compound 325]  androgen receptor (AR) (Homo sapiens, UniProt P10275, T878A)    100 to 1000 nM
 7  Fc1cc2[nH]nc(-c3ccc4c(-c5nnco5)c(F)ccc4n3)c2cc1F [Compound 33]  androgen receptor (AR) (Homo sapiens, UniProt P10275, T878A)    100 to 1000 nM
 8  Cc1nc(-c2c[nH]c3c(C#N)cccc23)cnc1NC1CCNC1 (stereo not shown) [Compound 181]  androgen receptor (AR) (Homo sapiens, UniProt P10275, T878A)    100 to 1000 nM
 9  Cc1nc(-c2n[nH]c3cc(F)c(F)cc23)ccc1N [Compound 53]  androgen receptor (AR) (Homo sapiens, UniProt P10275, T878A)  1000 to 10000 nM
10  CCNc1ccc(-c2n[nH]c3cc(F)c(F)cc23)nc1C [Compound 95]  androgen receptor (AR) (Homo sapiens, UniProt P10275, T878A)  1000 to 10000 nM
11  CC(C)(O)c1ccc(-c2n[nH]c3cc(F)c(F)cc23)nc1 [Compound 72]  androgen receptor (AR) (Homo sapiens, UniProt P10275, T878A)        > 10000 nM
12  Cc1nc(-c2n[nH]c3c(Cl)cccc23)ccc1OC1CCNC1 (stereo not shown) [Compound 256]  androgen receptor (AR) (Homo sapiens, UniProt P10275, T878A)  1000 to 10000 nM
13  CC(=O)N1CCCc2nc(-c3n[nH]c4cc(F)c(F)cc34)ccc21 [Compound 25]  androgen receptor (AR) (Homo sapiens, UniProt P10275, T878A)    100 to 1000 nM
14  CC(C)c1nc(-c2n[nH]c3cc(F)c(F)cc23)ccc1N [Compound 88]  androgen receptor (AR) (Homo sapiens, UniProt P10275, T878A)  1000 to 10000 nM
15  CC1CCNc2ccc(-c3n[nH]c4cc(F)c(F)cc34)nc21 (stereo not shown) [Compound 46]  androgen receptor (AR) (Homo sapiens, UniProt P10275, T878A)          < 100 nM
16  Cc1nc(-c2c[nH]c3c(F)cccc23)cnc1OCC(C)(C)O [Compound 332]  androgen receptor (AR) (Homo sapiens, UniProt P10275, T878A)  1000 to 10000 nM
17  Cc1nc(-c2c[nH]c3c(C#N)cccc23)ccc1NCC(=O)N(C)C [Compound 197]  androgen receptor (AR) (Homo sapiens, UniProt P10275, T878A)        > 10000 nM
18  Cc1nc(-c2c[nH]c3c(Cl)cccc23)ccc1N [Compound 207]  androgen receptor (AR) (Homo sapiens, UniProt P10275, T878A)    100 to 1000 nM
19  Cc1nc(-c2c[nH]c3c(C#N)cccc23)ccc1OCC(C)(C)O [Compound 324]  androgen receptor (AR) (Homo sapiens, UniProt P10275, T878A)  1000 to 10000 nM
